experimental protocol: amyloid nucleation score (Sup35N fusion, yeast selection) (log enrichment); library NNK3; higher = more nucleation; inactive = no reads after selection;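 note: zero at mode of non-aggregating sequences after 7 days selection at 30°C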
measured endpoint: amyloid nucleation score

>>> print(df.to_string())
               substance         measured_endpoint  meas_value
 0  SPLYGYGDKRQVRYLLTGSC  amyloid nucleation score    inactive
 1  WGDIEVFFSYVVYLSIWRES  amyloid nucleation score    inactive
 2            NDRVIRVGVN  amyloid nucleation score    inactive
 3  AQKFSIWLCTTICINTDFDF  amyloid nucleation score        2.31
 4  IITTHSFQTDWHISEYQDIC  amyloid nucleation score    inactive
 5  AVLHMSCNWDKQFYNLLCFC  amyloid nucleation score    inactive
 6  TCAVKMVRSWCNIPINSFQA  amyloid nucleation score    inactive
 7  VTWAAMWASRRVIQVITLRL  amyloid nucleation score    inactive
 8  VACTVSEAYKCTLIWTHLVR  amyloid nucleation score    inactive
 9  FLDFTWMKHGTLALPQAAHQ  amyloid nucleation score    inactive
10  FIFSTLHNVLHGSNRVNSVW  amyloid nucleation score    inactive
11  FKLWWIKCCMHPLMMHVAWM  amyloid nucleation score      -0.036
12    IIGTLSRMLDIGIIFVTT  amyloid nucleation score      -0.154
13                YIEILE  amyloid nucleation score    inactive
14    WLQISIEKTTKFPSKMNH  amyloid nucleation score        1.58
15          FKRWLSSWFKLA  amyloid nucleation score    inactive
16  DFYEIRTSGCDLYMFRGVVA  amyloid nucleation score    inactive
17  HTVKEGSSNNVVRVRIARRF  amyloid nucleation score    inactive
18  RRSISGKVLFTRIQSYLLKF  amyloid nucleation score      -0.759
19  KISSQIYMCRKTNSSDRTMM  amyloid nucleation score    inactive

###

experimental protocol: amyloid nucleation score (Sup35N fusion, yeast selection) (log enrichment); library NNK3; higher = more nucleation; inactive = no reads after selection
measured endpoint: amyloid nucleation score

>>> print(df.to_string())
               substance  meas_value
 0  KLMPVIVTFNRYFFGQVMEE         1.2
 1  DRNEVLDQNVVDSEISTVLP    inactive
 2  RCFRTLIRENMKLANTSDMT    inactive
 3  VLCQSHACRSHAGLCSSNKI    inactive
 4  RVCRVAPLPAVKGLGVSQNS    inactive
 5  FVFMTDGGVLNVLAWCISEA    inactive
 6             KSQYTSASP    inactive
 7        CDAHSLSMLRVQIK    inactive
 8  YALIQIPKYRLGCRGWTMRG       0.172
 9              PFDVHKRR    inactive
10         PGITNLWLEMSHV    inactive
11  VWRAWAINGTATWCLIGDHG    inactive
12  FWIVSVTYFNCLVDWGEGCM        2.05
13    YTKATHSVMFGFTVIVVF    inactive
14     FVEAANNSFCYESSNIT    inactive
15         CLFWMTWDVSRDS    inactive
16               SNQLNAN    inactive
17              FVTQFVEN    inactive
18        TSDQSESISLFRYI    inactive
19  GPNLLWDRGGPVNSCASKEA    inactive
20  TSLSTSKVLDASLRMDQLST    inactive
21    KEFCVRPLYRFSVRMNIC       0.035
22  GIKVLTTCGHKKFVGINSVM    inactive
23  YHLLFIVKAYIGVILNFLRS    inactive

###

experimental protocol: amyloid nucleation score (Sup35N fusion, yeast selection) (log enrichment); library NNK1; higher = more nucleation; inactive = no reads after selection
measured endpoint: amyloid nucleation score

>>> print(df.to_string())
               substance  meas_value
 0  VAKSRCYTQCGLGYLSRKLA    inactive
 1  CHNVVLFVVTQSMCEVSGGW    inactive
 2  AWNRYIFIPTLEFTVLCMWC        6.14
 3                WYRVCV      -0.603
 4  DTVYDFTMPAWYDYMFWTKW    inactive
 5               TRCRWLQ       0.931
 6   MLVYYNDKSVFHRFVLLRN       0.644
 7  RGGNLSRAFNYVRYIITHKN       0.145
 8     ASVVSCQQSYLRWQEIL      -0.316
 9  YVYSYLGGARGCVFKEKDPP       0.586
10             IAVSFSVVL        5.49
11  GFELVNVVGVIASLYNIIIV        2.92
12  DVIHDICHAVSIIGAWCRDR      -0.061
13  LCLVFVNLVLQRYGIASWYT       0.531
14  TCCRRVLSMEQQDTLVYWQY      -0.585

###

experimental protocol: amyloid nucleation score (Sup35N fusion, yeast selection) (log enrichment); library NNK1; higher = more nucleation; inactive = no reads after selection
measured endpoint: amyloid nucleation score

               substance         measured_endpoint  meas_value
 0          FVMFMPFSSHFS  amyloid nucleation score       0.848
 1  VDLSLLIMVFQFGGVGERLR  amyloid nucleation score        2.15
 2          GKLSCYPCTGCL  amyloid nucleation score      -0.109
 3    LYLFDPTNQKRFEVWKWK  amyloid nucleation score       0.063
 4  RYMLFVFHSLTGYYIRRFVY  amyloid nucleation score       -1.22
 5           WVRYFPCRIII  amyloid nucleation score       -1.27
 6  CWDGRQIWVILVIVLIRINA  amyloid nucleation score      -0.466
 7  MYVPQSINSYTQWEPKHIRW  amyloid nucleation score        1.64
 8  ICNQCNNSGTQLYCIKLYMR  amyloid nucleation score         6.1
 9  SWGFSMLRMEEWRMPVLFYS  amyloid nucleation score      -0.446
10        NCSGSRLFLMSLSL  amyloid nucleation score        6.52
11  GYIGICGNKYYFPVDRYRAC  amyloid nucleation score        1.28
12  MYGGKCSNGPCMYSVGIGTW  amyloid nucleation score        1.39
13  FKVPVYGWLWETTVVSADTS  amyloid nucleation score      -0.131
14  LNFCSVRVMEEISMVWCMVF  amyloid nucleation score        4.24
15  TSLPTAVWLKSARQWVEYGL  amyloid nucleation score        1.18
16  LLWISRTRPYWLLFSVWKLA  amyloid nucleation score      -0.107
17       NSCNDRFHLAMRQGF  amyloid nucleation score       0.067
18  CNNSSGRVVRLCSMDGGLLG  amyloid nucleation score      -0.021
19       KTMMIGFNNMWGGVQ  amyloid nucleation score        3.34
20                FIIKYK  amyloid nucleation score        2.26
21  QNIYFFKCAKHSKVNRSDMS  amyloid nucleation score        1.91
22  STNECSLLMGDSCGHHRSHC  amyloid nucleation score      -0.171
23  GSSFGFDYFDAHPMYLVTSY  amyloid nucleation score        1.37
24  LNNAKCKLVSIFHLGVWVGM  amyloid nucleation score       -1.12

###

experimental protocol: amyloid nucleation score (Sup35N fusion, yeast selection) (log enrichment); library NNK1; higher = more nucleation; inactive = no reads after selection
measured endpoint: amyloid nucleation score

In [3]: df
Out[3]:
               substance         measured_endpoint  meas_value
 0        YLFQAGQDTRLLIC  amyloid nucleation score       0.236
 1      RRYHGGDWSLLVNQLN  amyloid nucleation score       0.374
 2  LMRRAAVFFAGSRAGSRCLT  amyloid nucleation score      -0.675
 3         PYMVSGSWPKFRT  amyloid nucleation score       0.041
 4            NPPGGDIYEC  amyloid nucleation score      -0.721
 5          NMTPFGYIHFTL  amyloid nucleation score       0.644
 6  WSMMCKWMNVERFIYMLKSC  amyloid nucleation score       0.394
 7  SNKDLKSLTICRSTQHWTVL  amyloid nucleation score       0.095
 8               ITVRATR  amyloid nucleation score       -0.97
 9  GAKICIYELVLHEMRACVAR  amyloid nucleation score      -0.282
10      WKQMVLGVWCESLELL  amyloid nucleation score      -0.548
11  DFFRSANMYLGFASGGEGNG  amyloid nucleation score        0.77
12  NLTRSVHVMRQVIVQHFIGN  amyloid nucleation score       0.424
13  SGAVIYANKFYVISCHNWSY  amyloid nucleation score        7.48
14  AVSLFAGDQFDDTTRSAQGI  amyloid nucleation score      -0.306
15        GIRCISLRKGHAGW  amyloid nucleation score       -1.65
16  GMYRSVCDKVYRGCTIEVVV  amyloid nucleation score        1.55
17       MGLGVRVEKSSCACG  amyloid nucleation score       0.841
18  INLGLVGSRFGSNMERLYGG  amyloid nucleation score       0.503
19  ERNSITSILKRNRLSRGFAL  amyloid nucleation score        2.44
20  ALMNNGWYILSNFPYCMVIY  amyloid nucleation score         5.4
21        NMALCTCGLNPGNL  amyloid nucleation score       0.003
22  TMFIFCWKTGVCLYCNLFTS  amyloid nucleation score      -0.591
23          LCLGCGYGEETI  amyloid nucleation score       0.069
